Test system: hepatitis virus B (HBV) infection
TEST_METHOD_NOTES: iCell hepatocytes assay, delayed assay (compounds added three days after HBV infection)
Format: cell-based
MEASURED_ENDPOINT: Delayed assay HBs ELISA % inhibition

Below: 5 compounds and their reported Delayed assay HBs ELISA % inhibition.
COMPOUND: COCCCOc1cc2c(cc1Cl)-c1c(cc(C(=O)O)c(=O)n1C1CC1)C(C(C)C)O2 (centres unmarked)
Delayed assay HBs ELISA % inhibition: ++ (50-75%)
//
COMPOUND: CCC1Oc2cc(OCCCOC)c(F)cc2-c2c1cc(C(=O)O)c(=O)n2C1CC1 (centres unmarked)
Delayed assay HBs ELISA % inhibition: ++ (50-75%)
//
COMPOUND: COCCCOc1cc2c(cc1F)-c1c(cc(C(=O)O)c(=O)n1C1CC1)[C@H](C(C)C)O2
Delayed assay HBs ELISA % inhibition: ++ (50-75%)
//
COMPOUND: COc1cc2c(cc1OC)-c1c(cc(C(=O)O)c(=O)n1C1CC1)C(C(C)C)O2 (centres unmarked)
Delayed assay HBs ELISA % inhibition: +++ (75-100%)
//
COMPOUND: COCCCOc1cc2c(cc1Cl)-c1c(cc(C(=O)O)c(=O)n1C1CCC1)C(C(C)C)O2 (centres unmarked)
Delayed assay HBs ELISA % inhibition: +++ (75-100%)

// fetch hepatitis virus B (HBV) infection Delayed assay HBs ELISA % inhibition for COCCCOc1cc2c(cc1Cl)-c1c(cc(C(=O)O)c(=O)n1C1CC1)C(C1(C)COC1)O2 (centres unmarked)
++ (50-75%)

Hi! What's the reported Delayed assay HBs ELISA % inhibition for COCCCOc1cc2c(cc1F)-c1c(cc(C(=O)O)c(=O)n1C1CC1)C(C(C)C)O2 (centres unmarked) on hepatitis virus B (HBV) infection?
++ (50-75%)

For the record COCCCOc1cc2c(cc1Cl)-c1c(cc(C(=O)O)c(=O)n1C1CC1)[C@@H](C1(C)COC1)O2 , what value of Delayed assay HBs ELISA % inhibition is listed for hepatitis virus B (HBV) infection?
++ (50-75%)
